B1: Far upstream element-binding protein 2, residues 142 to 214; numbered along this chain, Q92945 (parent)
chain: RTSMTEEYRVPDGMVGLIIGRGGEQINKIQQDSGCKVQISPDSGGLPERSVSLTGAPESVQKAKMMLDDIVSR

variants of: B1; assay: abundance fitness (aPCA) (normalised: wild type 0, dead -1); higher = more abundant; growth selection in yeast, the domain comes from the species named; conditions: Homo sapiens
Class Y: abundance fitness at least -0.1. Class N: abundance fitness below -0.1.

Worked cases, answers included:
variant_identifier=I70A category=N
variant_identifier=D68N category=Y
variant_identifier=V37P category=N
variant_identifier=E24W category=Y
variant_identifier=Q31A category=N
variant_identifier=I26T category=N
variant_identifier=E58D category=Y
variant_identifier=L46H category=N

QUERY: Is the recorded value of abundance fitness equal to or greater than -0.1 for this variant? G23C
RESULT: N
